- ASSAY_OVERVIEW: in vivo
- TEST_CONTEXT: Balb/c nu/nu, mouse, iv, 40 pmol, total radioactivity, Lungs uptake
OUTCOME_MEASURE: tissue uptake at 1 h

Exercise: What measured tissue uptake at 1 h goes with CC(C)C[C@H](NC(=O)C[C@H](O)[C@H](CC(C)C)NC(=O)[C@H](Cc1c[nH]cn1)NC(=O)CNC(=O)[C@@H](NC(=O)[C@H](C)NC(=O)[C@H](Cc1c[nH]c2ccccc12)NC(=O)[C@H](CCC(N)=O)NC(=O)[C@@H](Cc1ccccc1)NC(=O)COCCOCCNC(=O)CCC(C(=O)O)N1CCN(CC(=O)O)CCN(CC(=O)O)CCN(CC(=O)O)CC1)C(C)C)C(N)=O (mixture of isomers) [[^111In]In-DOTAGA-PEG2-RM26, metal not drawn] ?
Solution: 0.5 %ID/g

Data provenance is paper PMC10377574.
